# study_system: Growth hormone secretagogue receptor type 1 (Homo sapiens, UniProt Q92847)
# Sequence (Q92847 whole entry): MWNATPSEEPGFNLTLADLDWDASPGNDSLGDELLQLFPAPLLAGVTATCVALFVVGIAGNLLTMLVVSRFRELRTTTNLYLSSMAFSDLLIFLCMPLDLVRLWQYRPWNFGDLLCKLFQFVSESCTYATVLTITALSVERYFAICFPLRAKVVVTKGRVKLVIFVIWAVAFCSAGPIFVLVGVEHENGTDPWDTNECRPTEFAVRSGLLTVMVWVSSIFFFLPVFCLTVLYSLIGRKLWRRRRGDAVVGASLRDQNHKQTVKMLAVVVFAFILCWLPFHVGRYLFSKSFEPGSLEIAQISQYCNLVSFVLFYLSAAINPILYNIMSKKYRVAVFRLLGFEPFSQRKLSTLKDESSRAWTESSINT
# test: Agonist activity at GHSR relative to full agonist
# Type: functional
endpoint_label: Activity (%)

                                    compound  endpoint_label  unit_symbol  meas_value
 0  C[C@@H](Oc1cccc(Cl)c1)C(=O)N(Cc1ccccc1)C[C@H]1CCCN1        Activity            %         100
 1  CC(=O)Nc1cccc(N(C[C@H]2CCCN2)C(=O)C(C)Oc2ccccc2Cl)c1 (stereo not given in full)        Activity            %          70
 2  Cc1ccccc1CN(C[C@H]1CCCN1)C(=O)[C@@H](C)Oc1cccc(Cl)c1        Activity            %          90
 3  CC(Oc1cccc(Cl)c1)C(=O)N(Cc1ccc(Cl)cc1)C[C@H]1CCCN1 (stereo not given in full)        Activity            %          90
 4  CC(Oc1ccccc1Cl)C(=O)N(C[C@H]1CCCN1)c1cccc(Cl)c1 (stereo not given in full)        Activity            %          60
 5  CC(Oc1ccccc1Cl)C(=O)N(Cc1ccccc1)C[C@H]1CCCN1 (stereo not given in full)        Activity            %          60
 6  C[C@H](Oc1cccc(Cl)c1)C(=O)N(Cc1ccccc1)C[C@H]1CCCN1        Activity            %          90
 7  CC(Oc1ccccc1)C(=O)N(C[C@H]1CCCN1)c1cccc(Cl)c1 (stereo not given in full)        Activity            %         110
 8  Cc1ccccc1CN(C[C@H]1CCCN1)C(=O)C(C)Oc1cccc(Cl)c1 (stereo not given in full)        Activity            %         100
 9  CC(Oc1cccc(Cl)c1)C(=O)N(Cc1ccccc1)C[C@H]1CCCN1 (stereo not given in full)        Activity            %          80
10  CC(Oc1ccccc1)C(=O)N(Cc1cccc(Cl)c1)C[C@H]1CCCN1 (stereo not given in full)        Activity            %          80
11  Cc1ccccc1CN(C[C@H]1CCCN1)C(=O)[C@H](C)Oc1cccc(Cl)c1        Activity            %          90
12  CC(=O)Nc1cccc(N(C[C@H]2CCCN2)C(=O)C(C)Oc2ccccc2)c1 (stereo not given in full)        Activity            %          80
13  CC(Oc1ccccc1Cl)C(=O)N(Cc1ccccc1Cl)C[C@H]1CCCN1 (stereo not given in full)        Activity            %          60
14  CC(Oc1ccccc1)C(=O)N(C[C@H]1CCCN1)c1ccccc1Cl (stereo not given in full)        Activity            %          80

====

# study_system: Growth hormone secretagogue receptor type 1 (Homo sapiens, UniProt Q92847)
# test: Binding affinity to GHSR
endpoint_label: Ki (µM)

Before answering, review these 3 worked examples.
>>> df
                                   compound                              study_system  meas_value
0  Cc1ccccc1CN(C[C@H]1CCCN1)C(=O)C(C)Oc1cccc(Cl)c1 (some centres undefined)  Growth hormone secretagogue receptor type 1 (Homo sapiens, UniProt Q92847)         0.1
1  C[C@H](Oc1cccc(Cl)c1)C(=O)N(Cc1ccccc1)C[C@H]1CCCN1  Growth hormone secretagogue receptor type 1 (Homo sapiens, UniProt Q92847)        0.03
2  CC(Oc1cccc(Cl)c1)C(=O)N(Cc1ccccc1)C[C@H]1CCCN1 (some centres undefined)  Growth hormone secretagogue receptor type 1 (Homo sapiens, UniProt Q92847)         0.3

a. Cc1ccccc1CN(C[C@H]1CCCN1)C(=O)[C@H](C)Oc1cccc(Cl)c1
b. Cc1ccccc1CN(C[C@H]1CCCN1)C(=O)[C@@H](C)Oc1cccc(Cl)c1
Prompt line: Which is greater in Ki, the first item a or the second item b ? Give the label of your selection.
Response line: b
(b: 2.2 µM, a: 0.03 µM)
